The measurements presented in this section are drawn from paper PMC6274087.

- targetEntity: α-glucosidase
- methodDescription: in vitro α-glucosidase inhibitory assay (4-nitrophenyl-α-D-glucopyranoside substrate, OD at 405 nm)
- recordedConditions: read-out: IC50 Value, α-glucosidase inhibitory activity, mean ± SD of triplicate experiments, acarbose as positive control
endpoint: pIC50
Answers are plain numbers, as −log10 of the molar value.

# example entries with known answers
[[record]]
molecule = "CC(=O)OC1C2(C)CC34OC5(C)OC6(C7CC(=O)OC(c8ccoc8)C7(C)CCC6(O5)C35OC(=O)CC25)C(OC(=O)C(C)C)C14O (centres unmarked)"
endpoint = "pIC50"
number = 4.22

[[record]]
molecule = "COC(=O)C(OC(C)=O)C1C2(C)CC3(O)C(O)(C2OC(C)=O)C2OC4(C(C)C)OC5(C(OC(C)=O)C(OC(C)=O)C67CC6(C(OC(C)=O)C(=O)OC7c6ccoc6)C25O4)C13C (centres unmarked)"
endpoint = "pIC50"
number = 3.28

[[record]]
molecule = "COC(=O)C(OC(C)=O)C1C2(C)CC34OC5(C)OC6(C(O)C(OC(C)=O)C78CC7(C(OC(C)=O)C(=O)OC8c7ccoc7)C6(O5)C(OC(=O)C(C)C)C3(O)C2OC(C)=O)C14C (centres unmarked)"
endpoint = "pIC50"
number = 3.70

[[record]]
molecule = "COC(=O)CC1C2(C)CC3(O)C(O)(C2OC(C)=O)C(OC(=O)C(C)C)C24OC5(C)OC(C(OC(C)=O)C67CC62C(OC(=O)C(C)C)C(=O)OC7c2ccoc2)C4(O5)C13C (centres unmarked)"
endpoint = "pIC50"
number = 4.40


Kindly consider the entry below.
Req: Hello, please tell me recorded pIC50 for this one: COC(=O)C(OC(C)=O)C1C2(C)CC3(O)C(OC(=O)C(C)C)(C2OC(C)=O)C2OC4(C)OC5(C(OC(C)=O)C(OC(C)=O)C67CC6(C(OC(C)=O)C(=O)OC7c6ccoc6)C25O4)C13C (centres unmarked)
Resp: 2.96

###

Please go through the items and note down their melting point.

Hi there! I need melting point for each item below, if you can.
1. COC(=O)C(OC(C)=O)C1C2(C)CC3(O)C(OC(=O)C(C)C)(C2OC(C)=O)C2OC4(C)OC5(C(OC(C)=O)C(OC(C)=O)C67CC6(C(OC(C)=O)C(=O)OC7c6ccoc6)C25O4)C13C (centres unmarked)
2. CC(=O)OC1C2(C)CC34OC5(C)OC6(C7CC(=O)OC(c8ccoc8)C7(C)CCC6(O5)C35OC(=O)CC25)C(OC(=O)C(C)C)C14O (centres unmarked)
3. COC(=O)C(OC(C)=O)C1C2(C)CC3(O)C(O)(C2OC(C)=O)C2OC4(C(C)C)OC5(C(OC(C)=O)C(OC(C)=O)C67CC6(C(OC(C)=O)C(=O)OC7c6ccoc6)C25O4)C13C (centres unmarked)
4. CC(=O)OC(C1=CC(O)OC1=O)C1(C)C(OC(C)=O)C(OC(C)=O)C2(O)C34OC(C)(CC13)OC4C1(OC(C)=O)C(OC(C)=O)C3(C)CC1(O)C21COC(=O)CC31 (centres unmarked)

Resp:
1: 208 to 209 °C; 2: 185 to 186 °C; 3: 190 to 191 °C; 4: 201 to 203 °C

Req: Hello, please tell me recorded melting point for this one: COC(=O)CC1C2(C)CC3(O)C(O)(C2OC(C)=O)C(OC(=O)C(C)C)C24OC5(C)OC(C(OC(C)=O)C67CC62C(OC(=O)C(C)C)C(=O)OC7c2ccoc2)C4(O5)C13C (centres unmarked)
Resp: 198 to 199 °C
